# Tested on: human lung cancer cells (A549)
# Test Name: MTT antiproliferative assay, A549
# Format: cell-based
# Conditions Used: Homo sapiens, A549, 72 h
Measurement Type: IC50 (µM)

[[record]]
molecule = "COc1cc(NC(=O)[C@@H](NC(=O)OC(C)(C)C)C(C)C)c2cc1Oc1ccc(cc1)C[C@H]1c3cc(c(OC)cc3CCN1C)Oc1c(OC)c(OC)cc3c1[C@H](C2)N(C)CC3"
measurement_type = "IC50"
result_unit = "µM"
endpoint_value = 7.24

[[record]]
molecule = "COc1cc(NC(=O)[C@@H](N)CO)c2cc1Oc1ccc(cc1)C[C@H]1c3cc(c(OC)cc3CCN1C)Oc1c(OC)c(OC)cc3c1[C@H](C2)N(C)CC3"
measurement_type = "IC50"
result_unit = "µM"
endpoint_value = 7.44

[[record]]
molecule = "COc1cc(NC(=O)[C@H](Cc2ccc(O)cc2)NC(=O)OC(C)(C)C)c2cc1Oc1ccc(cc1)C[C@H]1c3cc(c(OC)cc3CCN1C)Oc1c(OC)c(OC)cc3c1[C@H](C2)N(C)CC3"
measurement_type = "IC50"
result_unit = "µM"
endpoint_value = 6.26

[[record]]
molecule = "COc1cc(NC(=O)CN)c2cc1Oc1ccc(cc1)C[C@H]1c3cc(c(OC)cc3CCN1C)Oc1c(OC)c(OC)cc3c1[C@H](C2)N(C)CC3"
measurement_type = "IC50"
result_unit = "µM"
endpoint_value = 4.94

[[record]]
molecule = "COc1cc(NC(=O)[C@H]2CCCN2C(=O)OC(C)(C)C)c2cc1Oc1ccc(cc1)C[C@H]1c3cc(c(OC)cc3CCN1C)Oc1c(OC)c(OC)cc3c1[C@H](C2)N(C)CC3"
measurement_type = "IC50"
result_unit = "µM"
endpoint_value = 6.4

